Attribution: patent US7514433B2

Structures can show the parent of a compound that is named as a salt.
readout kind: Ki (µM)
Respond numerically; units are µM and should not be typed.

Could you share what Ki was measured for CC(C)CN1CC=C(c2cn(-c3ccc(F)cc3F)c3cc(C(=O)N4CCN(C(C)C)CC4)ccc23)CC1 , tested on histamine 3 receptor (H3R) (Homo sapiens)? 0.0176

API: value(readout=Ki, system=histamine 3 receptor (H3R) (Homo sapiens)) for record CC(C)CN1CCC(c2c[nH]c3cc(C(=O)N4CCN(C(C)C)CC4)ccc23)CC1 [Example 2, hydrochloride] 0.0243
